Provenance of the data: PubChem BioAssay (EPA / NIEHS)

read-out: Macrophage colony-stimulating factor (MCSF), CSF1 (gene 1435); test: BSK_LPS_MCSF: BioMAP Diversity Plus: LPS Assay for Macrophage colony-stimulating factor (MCSF) Biomarker Activity (AID 2283083); conditions: primary human HUVEC with PBMC; actives raise or lower the signal
Active and inactive are the calls of the source. Rule for the calls: active = hit-call score of the fitted dose curve at least 0.9, where 1 is the maximum; inactive = score below 0.9.
Form entry, call: pick from active, inactive

Reference set (10 entries):
> print(dat)
                                    molecule  category
 1                   CCCCCCCCCCCCCCCCCC(=O)O  inactive
 2                               CCCCCCCCCCO  inactive
 3                          COc1cc(C=O)ccc1O  inactive
 4             CCOc1ccc2c(c1)C(C)=CC(C)(C)N2  inactive
 5                                CN1CCCC1=O  inactive
 6  Nc1nc(N)c2nc(CNc3ccc(C(=O)N[C@@H](CCC(=O)O)C(=O)O)cc3)cnc2n1  inactive
 7              C=CCOC(=O)c1ccccc1C(=O)OCC=C  inactive
 8                           Cc1ccc2ncccc2c1  inactive
 9  C[Si]1(C)O[Si](C)(C)O[Si](C)(C)O[Si](C)(C)O1  inactive
10                   O=[N+]([O-])C(CO)(CO)CO  inactive

Exercise: Status in this test for "Cc1oc(-c2ccccc2)nc1CCOc1cccc2c1ccn2CCC(=O)O" ?
Solution: inactive

Exercise: Identify the outcome logged in this assay for the molecule shown: CCCCC(CC)COC(=O)CC(C(=O)OCC(CC)CCCC)S(=O)(=O)O (centres undefined)
Solution: active

Exercise: How was "Nc1ccc2c(c1)C(=O)c1ccccc1C2=O" classified in this test?
Solution: inactive
